Test system: UACC-62 melanoma
Experiment description: NCI-60 one-dose screen, 48 h
Experimental parameters: 10 µM unless noted
About 83,000 compounds went through this panel and 20% of them were active in at least one assay; those are over-represented in the sample as a whole. The source made the active and inactive calls. The calls were made as follows: active = growth percent below 10; inactive = the rest.
Labels: T for active, F for inactive

- Molecule: "O=c1c2cc(F)ccc2sc2c(N3CCNCC3)nc3ccccc3c12"
  Category label: "F"
- Molecule: "CCOC(=O)CC1C(COC(=O)NC)OC(n2cnc3c(NC(=O)Nc4ccccc4)ncnc32)C1O[Si](C)(C)C(C)(C)C (configuration not stated)"
  Category label: "F"
- Molecule: "CCN(CC)c1ccc(C2=NN(C(C)=O)C(c3cc(OC)c(OC)c(OC)c3)C2)cc1 (configuration not stated)"
  Category label: "F"
- Molecule: "CCCCn1c(-c2ccc(C(=O)O/N=C(\\N)c3ccc(OC)cc3)cc2)nc(-c2ccccc2)c1-c1ccccc1"
  Category label: "F"
- Molecule: "c1ccc(-c2nc3sc(-c4ccccc4)cn3n2)cc1"
  Category label: "F"
- Molecule: "COc1ccc(C2=Nn3c(nnc3-c3cc(Cl)cc(Cl)c3Cl)SC2)cc1"
  Category label: "F"
- Molecule: "Cc1ccc2sc3c(NCCN)nc4ccccc4c3c(=O)c2c1"
  Category label: "F"
- Molecule: "COc1ccc(OC)c(/C=C/c2nnc(Nc3ccccc3)o2)c1"
  Category label: "F"
- Molecule: "C=C1CC[C@@]2(C#N)[C@H]3[C@H](CC[C@@H]2C)[C@@H](C)C[C@@H](CC(C)(C)C#N)[C@H]13"
  Category label: "F"
- Molecule: "Cc1nn(-c2ccccc2)c2c1N=c1s/c(=C\\c3ccc(C(F)(F)F)cc3)c(=O)n1CN2"
  Category label: "F"
- Molecule: "Cc1ccc(NC2=C(Cl)C(=O)c3nc(C)ccc3C2=O)cc1"
  Category label: "T"
- Molecule: "CCOC(=O)/C=C1\\S/C(=N\\Nc2ccc([N+](=O)[O-])cc2[N+](=O)[O-])N(Cc2ccccc2)C1=O"
  Category label: "F"
- Molecule: "CN1CCN(c2ccc(-c3cc4c(Nc5ccc(F)c(Cl)c5)ncnn4c3)cc2)CC1"
  Category label: "F"
- Molecule: "NCCCNc1nc2ccc(Cl)cc2c2c(=O)c3cc(F)ccc3sc12"
  Category label: "F"
- Molecule: "CN1CCN(Cc2ccc(NC(=O)c3cncc(C#Cc4cnccc4C#N)c3)cc2C(F)(F)F)CC1"
  Category label: "F"
- Molecule: "O=C1/C(=C/c2ccc(F)cc2)Sc2c(Br)cccc21"
  Category label: "F"
- Molecule: "COc1cc(C(=O)c2cnc(-c3c[nH]c4cccc(C)c34)[nH]2)cc(OC)c1OC"
  Category label: "F"
